- assayNotes: C0 in Sprague-Dawley rat at 5 mg/kg, iv
- Format: ADME, organism-based
- conditionsUsed: in vivo
readoutLabel: C0 (ng/mL)
Numeric only. Scale: ng/mL

Fill in: C0 of `COc1c(C(=O)Nc2ccc3c(C)nn(CCC4CCN(C)CC4)c3c2)ccc2c1C=CC(C)(C)O2` is ___
342
